Experiment: Acute oral LD50 study
Test Settings: in vivo, rat, palmitic amido betaine purified according to Example 10
Reported Property: LD50 (mg/kg)

# Mol, Quantity Unit, Result Number
records = [
    ("CCCCCCCCCCCCCCCC(=O)NCCC[N+](C)(C)CC(=O)[O-]", "mg/kg", 2400),
]
